experimentalDetails: qHTS of pediatric cancer cell lines to identify multiple opportunities for drug repurposing: Primary screen for A673 cells (AID 1347092); also: potency is read from the fitted curve at half-maximal effect; nearly all actives have a fitted effect of over 45% in size
setupConditions: A673 Ewing sarcoma viability, CellTiter-Glo ATP luminescence, 48 h; series mostly up to 46 µM
Inconclusive results are not listed. Active and inactive are the calls of the source. Calls follow the shape of the dose curve; as a rule, active = well fitted cell-killing curve with a large enough effect; inconclusive = small, poorly fitted or top-dose-only effect; inactive = no such curve, though single readings can be large or run the other way.
measuredQuantity: Potency

CC(=O)OCCN1C(=O)c2c(C)nc3ccc(S(=O)(=O)N4CCOCC4)cc3c2C1=O :: 7430 nM (active)
CNC(=O)c1c(F)cccc1Nc1nc(Nc2cc3c(cc2OC)CCN3C(=O)CN(C)C)nc2[nH]ccc12 :: 93.5 nM (active)

Okay, here is my list. What is Potency for each of these?
1. Cc1c(C)n(Cc2ccc(-c3ccccc3C(=O)O)cc2)c2ccc(C(=O)N[C@@H](C)c3ccc([N+](=O)[O-])cc3)cc12
2. O=C(Nc1cc(C(F)(F)F)cc(C(F)(F)F)c1)c1cc(Cl)ccc1O

148 nM (active)
4690 nM (active)

* * *

experimentalDetails: Quantitative High-Throughput drug screen in 47 multiple myeloma cell lines against the NCATS MIPE library collection: Karpas25_ECACC cell viability assay (AID 1918968; also: potency is read from the fitted curve at half-maximal effect; nearly all actives have a fitted effect of over 35% in size)
setupConditions: Karpas25 myeloma viability, CellTiter-Glo ATP, 48 h; series mostly up to 45.8 µM
Description: PI: Beverly A. Mock Ph.D. Laboratory of Cancer Biology and Genetics, Center for Cancer Research, National Cancer Institute, National Institute of Health, Bethesda, Maryland […] 5; Detector; 425V; Luminescence; Viewlux PerkinElmer. […] 1. […] Briefly, the corresponding myeloma cell lines were screened in 1,536-well plates with 500 cells, 5-uL per well for inhibition of cell viability (assessed by measuring ATP levels with CellTiterGlo). […]
Records with an inconclusive call do not appear. Calls of active or inactive are those of the source. Calls come from the whole dose curve; as a rule, active = well fitted cell-killing curve with a large enough effect; inconclusive = small, poorly fitted or top-dose-only effect, or effect the other way; inactive = no such curve, though single readings can be large or run the other way.
measuredQuantity: Potency

CN1CCN(Cc2ccc(NC(=O)Nc3ccc(Oc4cc(NC(=O)C5CC5)ncn4)cc3)cc2C(F)(F)F)CC1 :: 0.118 µM (active)
Cc1cc(Nc2cc(CN3CCOCC3)c3nc(C)c(Cc4ccc(Cl)cc4F)n3n2)n[nH]1 :: 20.9 µM (active)
Cn1c(=O)n(-c2ccc(C(C)(C)C#N)cc2)c2c3cc(-c4cnc5ccccc5c4)ccc3ncc21 :: 0.0105 µM (active)
Cn1c2ccccc2c2c3c(c4c5ccccc5n(CCC#N)c4c21)CNC3=O :: 1.87 µM (active)

Here is the next item to consider.
What value of Potency has been reported for the following compound? "CCN1CCN(CC(=O)Nc2ccc(-c3cccc4c(=O)cc(N5CCOCC5)oc34)c3sc4ccccc4c23)CC1"
0.264 µM (active)

* * *

Test system: Hek293T
experimentalDetails: Primary qHTS to identify gynecologic anti-cancer compounds using libraries of approved drugs and bioactive compounds (AID 1345084); also: nearly all actives have a fitted effect of over 55% in size
setupConditions: Gynecologic cancer cell panel viability, ATPlite luminescence, 48 h, control line for the selectivity index; series mostly up to 57.5 µM
Inconclusive results are not listed. The source made the active and inactive calls. Calls follow the shape of the dose curve; as a rule, active = well fitted cell-killing curve with a large enough effect; inconclusive = small, poorly fitted or top-dose-only effect, or effect the other way; inactive = flat fitted curve, though single readings scatter.
Mark one answer only. Choices: true (1) for active, false (0) for inactive

Nc1nccc(Oc2ccc(NC(=O)c3c[nH]cc(-c4ccc(F)cc4)c3=O)cc2F)c1Cl :: false (0)
COc1ccc(-n2nc(C(N)=O)c3c2C(=O)N(c2ccc(N4CCCCC4=O)cc2)CC3)cc1 :: false (0)
NC(=O)Nc1cc(-c2cccc(F)c2)sc1C(=O)N[C@H]1CCCNC1 :: true (1)
CC(C)c1cc(-c2n[nH]c(=O)n2-c2ccc3c(ccn3C)c2)c(O)cc1O :: true (1)
Cc1c(Cn2c(C)nc3c(C(=O)O)cc(N4CCOCC4)cc32)cccc1C(F)(F)F :: false (0)

Short answer needed: outcome of this test for O=C(O)C1(Cc2cccc(Nc3nccs3)n2)CCC(Oc2cccc(Cl)c2F)CC1 (stereo not drawn) ?
false (0)

Short answer needed: outcome of this test for COc1ccc(-c2cc3c(C)nc(N)nc3n(C3CCC(OCCO)CC3)c2=O)cn1 (stereo not drawn) ?
true (1)

Short answer needed: outcome of this test for "Cc1c(NC(=O)OC[C@@H]2COCCN2)cn2ncnc(Nc3ccc4c(cnn4Cc4cccc(F)c4)c3)c12" ?
false (0)
